Target: p110β/p85α (Homo sapiens, UniProt P42338)
Sequence (P42338 whole entry): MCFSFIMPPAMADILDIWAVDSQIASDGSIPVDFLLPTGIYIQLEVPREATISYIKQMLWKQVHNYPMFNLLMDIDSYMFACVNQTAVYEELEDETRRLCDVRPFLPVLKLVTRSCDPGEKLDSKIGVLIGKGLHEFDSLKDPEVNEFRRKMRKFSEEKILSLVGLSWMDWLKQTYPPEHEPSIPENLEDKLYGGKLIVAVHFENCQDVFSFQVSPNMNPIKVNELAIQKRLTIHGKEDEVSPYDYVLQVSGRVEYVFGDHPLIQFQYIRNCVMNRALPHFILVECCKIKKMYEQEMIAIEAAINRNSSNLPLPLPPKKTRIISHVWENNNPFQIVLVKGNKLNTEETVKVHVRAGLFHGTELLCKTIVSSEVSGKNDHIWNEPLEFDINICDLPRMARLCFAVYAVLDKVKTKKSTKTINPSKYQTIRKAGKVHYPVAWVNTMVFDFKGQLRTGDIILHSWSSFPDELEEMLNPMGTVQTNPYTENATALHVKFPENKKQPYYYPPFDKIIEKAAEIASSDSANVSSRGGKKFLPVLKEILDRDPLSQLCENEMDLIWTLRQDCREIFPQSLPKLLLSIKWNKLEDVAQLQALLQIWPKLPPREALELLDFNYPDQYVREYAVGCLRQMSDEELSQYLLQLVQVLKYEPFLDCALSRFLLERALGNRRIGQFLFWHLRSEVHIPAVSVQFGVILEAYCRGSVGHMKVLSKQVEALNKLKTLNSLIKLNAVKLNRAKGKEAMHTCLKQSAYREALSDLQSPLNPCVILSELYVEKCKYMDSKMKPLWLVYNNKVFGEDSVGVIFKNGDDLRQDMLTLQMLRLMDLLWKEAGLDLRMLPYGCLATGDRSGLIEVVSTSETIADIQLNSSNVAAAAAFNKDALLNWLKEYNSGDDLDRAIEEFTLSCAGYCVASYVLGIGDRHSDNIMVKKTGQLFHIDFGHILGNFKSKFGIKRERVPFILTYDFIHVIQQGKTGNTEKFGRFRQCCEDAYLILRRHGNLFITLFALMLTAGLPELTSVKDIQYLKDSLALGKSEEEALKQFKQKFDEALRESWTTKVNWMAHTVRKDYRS
Sequence (P27986 2-724 partner): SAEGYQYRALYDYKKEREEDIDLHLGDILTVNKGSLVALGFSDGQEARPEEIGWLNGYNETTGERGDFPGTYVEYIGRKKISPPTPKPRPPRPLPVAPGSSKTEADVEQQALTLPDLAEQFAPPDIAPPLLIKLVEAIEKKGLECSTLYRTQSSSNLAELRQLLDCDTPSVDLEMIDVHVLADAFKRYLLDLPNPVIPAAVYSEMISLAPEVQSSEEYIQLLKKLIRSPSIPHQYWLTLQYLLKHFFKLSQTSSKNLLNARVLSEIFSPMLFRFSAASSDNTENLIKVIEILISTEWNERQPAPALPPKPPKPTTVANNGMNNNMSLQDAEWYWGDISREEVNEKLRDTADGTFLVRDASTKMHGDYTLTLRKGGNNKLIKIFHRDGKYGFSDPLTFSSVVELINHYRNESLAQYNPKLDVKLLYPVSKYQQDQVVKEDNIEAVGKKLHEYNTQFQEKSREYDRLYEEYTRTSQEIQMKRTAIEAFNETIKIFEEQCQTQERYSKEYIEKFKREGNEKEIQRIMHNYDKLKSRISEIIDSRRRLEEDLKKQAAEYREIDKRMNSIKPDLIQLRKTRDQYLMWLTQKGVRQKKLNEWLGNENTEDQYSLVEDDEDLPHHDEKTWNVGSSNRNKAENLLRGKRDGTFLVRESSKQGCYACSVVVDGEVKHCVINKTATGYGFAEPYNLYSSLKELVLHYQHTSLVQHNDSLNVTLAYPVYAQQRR
Test: Transcreener KINASE Assay, kinase inhibition of p110β/p85α
Assay type: biochemical
Details: 1 uM test compound
Protocol: PI3K kinases including p110α/p85α, p110δ/p85α and p110γ are purchased from Invitrogen, and p110β/p85α is from Millipore. Primary screening data and IC50 values are measured using Transcreener™ KINASE Assay (Bellbrook, Catalog #3003-10K). […] It is a universal, homogenous, high throughput screening (HTS) technology using a far-red, competitive fluorescence polarization immunoassay based on the detection of ADP to monitor the activity of enzymes that catalyze group transfer reactions. […]
Reported PI3Kβ IH % @ 1 uM by item:

Record excerpt, results attached:
# COMPOUND, ASSAYED_SYSTEM, METRIC_NAME, TEST_VALUE
rows = [
    ("CC(=O)c1c[nH]c2ncnc(N3CCC[C@H]3c3nn4ccc(Cl)c4c(=O)n3-c3ccccn3)c12", "p110β/p85α (Homo sapiens, UniProt P42338)", "PI3Kβ IH % @ 1 uM", "76.1%"),
    ("C[S+]([O-])c1c[nH]c2ncnc(N3C[C@@H](F)C[C@H]3c3nn4ccc(Cl)c4c(=O)n3-c3ccccc3)c12 (stereo partly shown)", "p110β/p85α (Homo sapiens, UniProt P42338)", "PI3Kβ IH % @ 1 uM", "73.2%"),
    ("CC(=O)c1c[nH]c2ncnc(N3C[C@@H](F)C[C@H]3c3nn4ccc(Cl)c4c(=O)n3-c3ccccc3)c12", "p110β/p85α (Homo sapiens, UniProt P42338)", "PI3Kβ IH % @ 1 uM", "80.3%"),
    ("Cc1nc(N)nc(N2CC[C@H]2c2nn3c(C)cc(Cl)c3c(=O)n2-c2ccccc2)c1C#N", "p110β/p85α (Homo sapiens, UniProt P42338)", "PI3Kβ IH % @ 1 uM", "33.6%"),
    ("CC(=O)c1c(N)nc(N)nc1N1CCC1c1nn2ccc(Cl)c2c(=O)n1-c1ccccc1 (stereo not shown)", "p110β/p85α (Homo sapiens, UniProt P42338)", "PI3Kβ IH % @ 1 uM", "50.7%"),
]

Please give the measured PI3Kβ IH % @ 1 uM for this compound: "CS(=O)(=O)c1c[nH]c2ncnc(N3CC[C@H]3c3nn4ccc(Cl)c4c(=O)n3-c3ccccc3)c12"
63.0%

Another: CC(=O)c1c(N)nc(N)nc1N1C[C@H](C)C1c1nn2ccc(Cl)c2c(=O)n1-c1cccc(F)c1 (stereo partly shown)
73.6%
